- Tested on: HeLa
- METHOD DESCRIPTION: Cytotoxicity against human HeLa cells under hypoxic condition incubated for 48 hrs by MTT assay
- Format: functional, cell-based
PROPERTY: IC50

COc1ccc(C(=O)/C=C/c2cccc([N+](=O)[O-])c2)cc1F; 3.3 µM
COc1ccc(C(=O)/C=C/c2ccc(OC)c([N+](=O)[O-])c2)cc1F; > 50 µM
O=C(/C=C/c1cccc([N+](=O)[O-])c1)c1ccc(OCc2cn(CCCC[P+](c3ccccc3)(c3ccccc3)c3ccccc3)nn2)c(Br)c1; > 50 µM

Recorded IC50 (molecule `COc1ccc(C(=O)/C=C/c2ccc(OC)c([N+](=O)[O-])c2)cc1Br` ): 15.1 µM

The recorded IC50 for `COc1ccc(/C=C/C(=O)c2ccc(OCc3cn(CCCC[P+](c4ccccc4)(c4ccccc4)c4ccccc4)nn3)c(Br)c2)cc1[N+](=O)[O-]` is > 50 µM

----------
- METHOD DESCRIPTION: Toxicity in BALB/c nude mouse xenografted with human HeLa cells assessed as animal mortality at 25 to 50 mg/kg, ip qd for 14 days
- Type: organism-based
- SETUP CONDITIONS: in vivo, dose 25-50 mg/kg, time 14 day
PROPERTY: mortality at 336 h (%)
Give the quantity in %, number only.

The reported value for `COc1ccc(C(=O)/C=C/c2cccc(N)c2)cc1F` in terms of mortality at 336 h is 50

Sourced from ChEMBL document CHEMBL6078702
